Numbers sourced from ChEMBL document CHEMBL1201862.

# Test system: A549
# experimental-protocol: NCI tumour cell line growth inhibition, 48 h
The source made the active and inactive calls. No stated cut-off is given here; in the data, active = GI50 up to about 1.1 µM and inactive = higher.
recorded-metric: GI50

Consider the following illustrative entries.
C[n+]1c(-c2ccc(/C=N\N3CCN(/N=C/c4ccc(-c5cn6ccsc6[n+]5C)cc4)CC3)cc2)cn2ccsc21 = 44.1 µM (inactive)
Cn1nnnc1SC(F)(F)c1nc2ccccc2o1 = > 100 µM (inactive)
O=[PH](O)c1cc2c3ccccc3ccc2c2ccccc12 = > 100 µM (inactive)

Entry under review: O=C(O)C(Cc1ccccc1)N1C(=O)c2ccccc2C1=O (stereo unspecified) . Reported GI50?
> 100 µM (inactive)

Entry under review: CCOc1cc(C2SCC(=O)N2c2ccc(Oc3ccc(Cl)cc3)c(Cl)c2)ccc1O (stereo unspecified) . Reported GI50?
17.9 µM (inactive)

Entry under review: Nc1ccc(C(=O)CC2(O)C(=O)Nc3ccccc32)cc1 (stereo unspecified) . Reported GI50?
> 100 µM (inactive)

###

# Tested on: CAKI-1
# experimental-protocol: NCI tumour cell line growth inhibition, 48 h
Structures can show the parent of a compound that is named as a salt. Calls of active or inactive are those of the source. No stated cut-off is given here; in the data, active = GI50 up to about 1.1 µM and inactive = higher.
Parameter call: string, one of active, inactive

Use these answered entries as a reference point.
CC[C@@]12CCCN3CC[C@]4(c5cccc(OC)c5N(C(C)=O)[C@@H]4CC1)[C@H]32 = inactive
OCCCCCCCCCCCOc1ccc(C2OCC3(CO2)COC(c2ccc(OCCCCCCCCCCCO)cc2)OC3)cc1 (centres undefined) = inactive
COc1cc(/C=C2\CC3C4CC[C@H]5C[C@@H](O)CC[C@]5(C)C4CC[C@]3(C)C2=O)cc(OC)c1OC (some centres undefined) = inactive
CC(NC(C)(C)C)C(=O)c1cccc(Cl)c1 (centres undefined) [BUPROPION HYDROCHLORIDE] = inactive
Cc1cc2c(cc1Cl)SC(N/N=C(\N)c1ccc(Cl)cc1)=NS2(=O)=O = inactive
CC(=O)C1C(=O)C(=O)N(c2cccc(C)c2C)C1=O (centres undefined) = inactive
COc1ccc(-n2c(Cn3nnc(-c4cccnc4)n3)nn(C3OC(COC(=O)c4ccccc4)C(OC(=O)c4ccccc4)C3OC(=O)c3ccccc3)c2=S)cc1 (centres undefined) = inactive
COC(=O)c1cc(NC(=O)Cc2c[nH]c3ccccc23)cn1C = inactive
COc1nc(C#CCC(C)O)nc(OC)n1 (centres undefined) = inactive
O=C(/C=C/c1cccs1)c1ccsc1 = inactive

// next entry
Per the assay record, what outcome was assigned to CC1(C)[N+]([O-])=[N+]([O-])C1(C)O (centres undefined) ?
inactive

###

# Tested on: SK-MEL-28
# experimental-protocol: NCI tumour cell line growth inhibition, 48 h
Activity calls are given as the source filed them. Cut-off read from the data, not from the text of the source: active = GI50 up to about 1.1 µM and inactive = higher.
recorded-metric: GI50

CC1(C)N=C(N)N=C(N)N1c1cccc(OCCOc2ccc([N+](=O)[O-])cc2)c1 = 53.3 µM (inactive)
COC(=O)c1ccc(COC(=O)N2C=CCC2C(=O)O)cc1 (stereo not given) = > 100 µM (inactive)
CC(=O)CC(=O)OC1CC(C)CCC1C(C)C (stereo not given) = 63.4 µM (inactive)
COS(C)(=O)=O = > 2 µM (inactive)

Entry under review: O=C(CC1(O)C(=O)Nc2ccc(Br)cc21)c1ccc(Cl)cc1 (stereo not given) . Reported GI50?
> 100 µM (inactive)
